- Tested on: P388 leukemia ip, CD2F1 mice, survival T/C
- Assay method text: NCI In Vivo Anticancer Drug Screen. Data for tumor model P388 Leukemia (intraperitoneal) in CD2F1 (CDF1) mice
- Particulars: endpoint: median survival time; dose: 50.0 mg/kg/injection; schedule: Q04DX003 (ip); vehicle: saline with Tween-80
Toxic doses and inconclusive results are not listed. How the source made its calls: active means survival T/C of 150% or more; inactive means T/C below 125% in these data.
Classes used: active, inactive

Compound	Group label
NNC(=O)CCc1ccccc1Br	inactive
O=[N+]([O-])c1ccc(Sc2ccc([N+](=O)[O-])cc2)cc1	inactive
CN(C)c1cccc2c(S(=O)(=O)Cl)cccc12	inactive
C=C1CC2(CCOc3ccccc32)OC1=O (stereo not drawn)	inactive
Cc1n[nH]c2ccc([N+](=O)[O-])cc2c1=O	inactive
CCCCCCCCC(C(=O)c1ccccc1)=C(C(F)(F)F)C(F)(F)F	inactive
O=C(C(=O)c1ccccn1)c1ccccn1	inactive
CCC(C(=O)O)C(=O)O.[NH-]CC[NH-].[Pt+2]	active
CC(CNC(=O)CCOS(C)(=O)=O)NC(=O)CCOS(C)(=O)=O (stereo not drawn)	active
COC(=O)NC(=S)Nc1nncs1	inactive
CCNc1ccc(F)cc1[N+](=O)[O-]	inactive
CC(C)COP(=O)(OCC(C)C)OCC(C)C.CC(C)COP(=O)(OCC(C)C)OCC(C)C.CC(C)COP(=O)(OCC(C)C)OCC(C)C.CC(C)COP(=O)(OCC(C)C)OCC(C)C.O.O.[Co+2].[O-][Cl+3]([O-])([O-])O	inactive
Oc1c(Cl)cc(Cl)cc1/C=N/Nc1ccc2ccccc2n1	inactive
